Let's look at some compounds and their measured melting point.
recordedMetric: melting point

| compound | observedValue |
| --- | --- |
| CCN1CCC[C@@H]2CN(c3ccc4cc(-c5cn6cc(C)nc(C)c6n5)c(=O)oc4c3)C[C@@H]21 [Compound 786] | 215 to 221 °C |
| CN1CCN(c2ccc3cc(-c4cn5ccsc5n4)c(=O)oc3c2)CC1 [Cpd 117] | 256 to 258 °C |
| CN1CCN(c2ccc3cc(-c4nc5c(Cl)cccc5o4)c(=O)oc3c2)CC1 [Cpd 68] | 229 to 231 °C |
| CCCN1CCN(c2ccc3cc(-c4cc5cc(C)nc(C)c5o4)c(=O)oc3c2)CC1 [Compound 815] | 259 to 262 °C |
| Cc1cccc2nc(-c3cc4ccc(N5CCN(C)CC5)cc4oc3=O)cn12 [Compound 135] | 263 to 272 °C |
| CCc1cn2cc(-c3cc4ccc(N5CCCNCC5)cc4oc3=O)nc2s1 [Compound 430] | 185 to 189 °C |
| CCC1CN(c2ccc3cc(-c4cn5cc(C)nc(C)c5n4)c(=O)oc3c2)CCN1C (centres unmarked) [Compound 676] | 258 to 262 °C |
| O=c1oc2cc(N3CC4CCC(C3)N4)ccc2cc1-c1cn2cccc(Cl)c2n1 [Compound 526] | 213 to 216 °C |

Where do these numbers come from? They come from patent USRE47689E1.
